Assay: differential killing of epithelial or mesenchymal cells, primary screen, imaging, PC-3E GFP, TEM4-18 mCherry, co-culture (AID 1345086);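 further: cells exposed to compound for 72 h before imaging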
Conditions: imaging cell counts, measured here: epithelial PC-3E GFP cell survival, at 1 µM
Listing of entries alongside the reported normalised cell number.

Use these answered entries as a reference point.
O=C(O)CNc1ccc(Cl)cc1[N+](=O)[O-] ... 1.11
CC(=O)Oc1ccc2c(c1)CCC1C2CC[C@@]2(C)C1CC[C@@H]2OC(C)=O (some centres undefined) ... 1.29
Cc1cc(=O)c(C(=O)N[C@@H](C(=O)N[C@@H]2C(=O)N3C(C(=O)O)=C(CSc4nnnn4C)CSC23)c2ccc(O)cc2)c[nH]1 (some centres undefined) ... 1.24

Q. Report normalised cell number for `COc1ccc(-c2cc(=O)c3c(O)cc(O[C@@H]4O[C@H](CO[C@H]5O[C@H](C)[C@@H](O)[C@H](O)[C@@H]5O)[C@@H](O)[C@H](O)[C@H]4O)cc3o2)cc1O` please.
A. 1.13

Q. Cool, now `C=C1C(=O)O[C@@H]2C(=O)O[C@@H](CCCCCCCC)[C@H]12`
A. 1.04

Q. Cool, now `O=C1C2CC3CC1CC(O)(C3)C2`
A. 1.16

----------
Tested on: R275C/beta4
Test: modulators of BK channel variants, profiling panel, selectivity assay, cell-based, U2OS BacMam, thallium flux, beta subunits (AID 1259406);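 further: initial slope of Thallos dye fluorescence rise after thallium is added; log ratio against the mean of 0.3% DMSO vehicle wells on the same plate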
Conditions: at 30 µM
Calls of active or inactive are those of the source.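 How the source made its calls: active means thallium flux through the channel raised or lowered by more than 3 SD from vehicle-only wells, actives on both sides; inactive means the rest.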
// one of 1.0 for active, 0.0 for inactive, no free text

CC(=O)Nc1ccc(OCC(=O)N2CCN(c3ncc(C(F)(F)F)cc3Cl)CC2)cc1 ... 0.0
COc1ccnc(CS(=O)c2nc3cc(OC(F)F)ccc3[nH]2)c1OC (stereo not drawn) ... 0.0
Fc1ccc(C2CCNCC2COc2ccc3c(c2)OCO3)cc1 (stereo not drawn) ... 1.0
Cc1ccc(C2=C(c3ccccc3)C(=O)C(c3ccccc3)=C2c2ccc(Cl)cc2)cc1 ... 0.0

Q. Assay result, entry `O=C(Nc1ccccc1)OCc1cc(-c2ccccc2)c(C(F)(F)F)s1` — outcome?
A. 0.0

Q. Cool, now `CN1CC(=O)N2[C@H](c3ccc4c(c3)OCO4)c3[nH]c4ccccc4c3C[C@@H]2C1=O`
A. 0.0

Q. Cool, now `O=C(O)CSCC(=O)Nc1ccc(-c2nc3ccccc3s2)cc1`
A. 0.0

Q. Cool, now `CO[C@H]1/C=C/O[C@@]2(C)Oc3c(C)c(O)c4c(O)c(c(C=NN5CCN(C)CC5)c(O)c4c3C2=O)NC(=O)/C(C)=C\C=C\[C@H](C)[C@H](O)[C@@H](C)[C@@H](O)[C@@H](C)[C@H](OC(C)=O)[C@@H]1C`
A. 0.0

Q. Cool, now `COc1ccc(Cl)cc1N1C(=O)C=C(c2ccccc2)C1=O`
A. 0.0

----------
System: F380Y/beta4
Experiment: modulators of BK channel variants, profiling panel, selectivity assay, cell-based, U2OS BacMam, thallium flux, beta subunits (AID 1259406);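 further: initial slope of Thallos dye fluorescence rise after thallium is added; log ratio against the mean of 0.3% DMSO vehicle wells on the same plate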
Settings: at 30 µM
Short version: log fold change Tl+ flux at least 0.02 is yes, less is no.

These solved cases illustrate the format of a correct answer.
O=C(NC(CO)C(O)c1ccc([N+](=O)[O-])cc1)C(Cl)Cl (stereo unspecified) ... no
O=S1(=O)CC(N2CCOCC2)c2ccccc21 (stereo unspecified) ... no
COc1cc(/C=C/c2ccc(O)cc2)cc(OC)c1 ... no
CN1CCN2c3ncccc3Cc3ccccc3[C@@H]2C1 ... yes
CCOC(=O)c1ccc(NC(=O)CCC(=O)O)cc1 ... yes
COC(=O)C(C#N)=C1NC(C)=NC(SC)=C1C#N ... yes
CCN(CC)CCOc1ccc(C(=C(Cl)c2ccccc2)c2ccccc2)cc1 ... no
O=C(O)C(Cc1ccccc1[N+](=O)[O-])=NNc1ccccc1 ... yes
O=C(O[C@H]1[C@H](Oc2ccccc2COC(=O)C2(O)C=CCCC2=O)O[C@H](CO)[C@@H](O)[C@@H]1O)c1ccccc1 (stereo partly specified) ... no
Cc1cccc(CCN2CCC(C(=O)c3ccc(NS(C)(=O)=O)cc3)CC2)n1 ... no

Q. Does the reported log fold change Tl+ flux for `CCCc1nc(C(C)(C)O)c(C(=O)O)n1Cc1ccc(-c2ccccc2-c2nn[nH]n2)cc1` fall at or above the 0.02 mark?
A. no
